- system: T1, 4H2865-AA
- T1 chain: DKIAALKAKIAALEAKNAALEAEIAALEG
- assay comment: two-hybrid library CCmax;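 further: natural log of median RNA to DNA barcode read ratio; higher means stronger binding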
- measurement context: mean of both orientations
result type: interaction score

binder | obs value
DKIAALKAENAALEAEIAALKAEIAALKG [4H2698-AA] | 0.889
DKIAALKAENAALEAKIAALEAKIAALEG [4H2725-AA] | -1.08
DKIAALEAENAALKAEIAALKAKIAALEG [4H2253-AA] | -1.42
DKIAALKAEIAALKAENAALKAEIAALEG [4H2649-AA] | -1.38
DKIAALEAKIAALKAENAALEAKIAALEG [4H2389-AA] | 1.02
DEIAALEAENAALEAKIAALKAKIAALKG [4H174-AA] | 0.805
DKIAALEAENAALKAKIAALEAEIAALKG [4H2274-AA] | -1.31
